test system: SNB-19; assay: NCI tumour cell line growth inhibition, 48 h
Active and inactive are the calls of the source. Cut-off read from the data, not from the text of the source: active = GI50 up to about 1.1 µM and inactive = higher.
measure-name: GI50

Please state recorded GI50 (tested on SNB-19) of O=C[C@]12CC=C3OC4OC5(CCCCC5)OC4[C@H]3[C@H]1C(=O)C=CC2=O (stereo partly drawn)
28.4 µM (inactive)

Please state recorded GI50 (tested on SNB-19) of COc1ccc(-c2cc(-c3ccccc3)[nH]c(=S)c2C#N)cc1
40.4 µM (inactive)

Please state recorded GI50 (tested on SNB-19) of CCC(/C(=N/NC(=O)C[N+](C)(C)C)c1ccccc1)C1OC(=O)c2ccccc21 (stereo not drawn)
> 100 µM (inactive)

Please state recorded GI50 (tested on SNB-19) of c1ccc(CNc2c3c(nc4ccccc24)CCC3)cc1
23 µM (inactive)

Please state recorded GI50 (tested on SNB-19) of C/C(=N\NC(=O)CC#N)C(CN1CCCCC1)C(c1ccccc1)c1c(O)c2ccccc2oc1=O (stereo not drawn)
80.4 µM (inactive)

Please state recorded GI50 (tested on SNB-19) of CSc1nc(=O)c2nc(-c3cccs3)c(-c3cccs3)nc2n1C
29.8 µM (inactive)

Please state recorded GI50 (tested on SNB-19) of Oc1cc(-c2cccc(OC(F)(F)F)c2)nc2ccc(N3CCCC3)cc12
0.00018 µM (active)

Please state recorded GI50 (tested on SNB-19) of COc1cc(C/N=c2/nc(N(C)C)ss2)cc(OC)c1OC
> 10 µM (inactive)

Please state recorded GI50 (tested on SNB-19) of Cc1nc2cc(Cl)c(N)cc2[nH]1
> 100 µM (inactive)

Please state recorded GI50 (tested on SNB-19) of CCCCCCCCCC(=O)OCC1OC(n2cc(F)c(=O)[nH]c2=O)C(NC(=O)OCc2ccccc2)C(OC(=O)CCCCCCCCC)C1O (stereo not drawn)
33.6 µM (inactive)

Please state recorded GI50 (tested on SNB-19) of O=c1sc2ccccc2n1CC1CS1 (stereo not drawn)
> 100 µM (inactive)

Please state recorded GI50 (tested on SNB-19) of Cc1n[nH]c(=S)n(C)c1=S
> 100 µM (inactive)

Please state recorded GI50 (tested on SNB-19) of C[C@@]1(O)CC[C@]2(C)C3CCCC3[C@H]12 (stereo partly drawn)
> 100 µM (inactive)

Please state recorded GI50 (tested on SNB-19) of CC(C)C(Nc1ncnc2nc[nH]c12)C(=O)O (stereo not drawn)
> 100 µM (inactive)

Please state recorded GI50 (tested on SNB-19) of O=C(NC1C2CC3CC(C2)CC1C3)/C(Cl)=C1/Sc2ccccc2NC1=O (stereo not drawn)
> 100 µM (inactive)

Please state recorded GI50 (tested on SNB-19) of COC(=O)c1nc(N)nc(O)c1-c1ccc(Cl)cc1
> 100 µM (inactive)

Please state recorded GI50 (tested on SNB-19) of CCn1cc(C(=O)O)c(=O)c2ccc(C)nc21
> 100 µM (inactive)

Please state recorded GI50 (tested on SNB-19) of CCOC(=O)/N=c1\ss/c(=N\C(=S)N(C)C)n1-c1ccccc1
47.2 µM (inactive)

Please state recorded GI50 (tested on SNB-19) of CC(C)(CN1CCCCC1)C(=O)/C=C/c1ccc(/C=C/C(=O)C(C)(C)CN2CCCCC2)cc1
1.35 µM (inactive)

Please state recorded GI50 (tested on SNB-19) of CCN(CC)CCn1c(=O)c2c(C)c3oc4ccccc4oc3c(C)c2c1=O
> 100 µM (inactive)

Please state recorded GI50 (tested on SNB-19) of O=[N+]([O-])c1ccc2c(c1)nc1n2C(c2c(F)cccc2F)SC1 (stereo not drawn)
> 100 µM (inactive)

Please state recorded GI50 (tested on SNB-19) of COc1ccc(OC)c(C[P+](c2ccccc2)(c2ccccc2)c2ccccc2)c1
2.67 µM (inactive)

Please state recorded GI50 (tested on SNB-19) of COC(=O)C1=CC(=O)OC1(OO)c1ccccc1 (stereo not drawn)
> 100 µM (inactive)

---

What GI50 was measured for each of the following?
test system: OVCAR-4; assay: NCI tumour cell line growth inhibition, 48 h
The source made the active and inactive calls. Rule as the data show it: active = GI50 up to about 1.1 µM and inactive = higher.

Please state recorded GI50 (tested on OVCAR-4) of OC[C@H](O)[C@@H](OCc1ccccc1)[C@H](NCc1ccccc1)c1cccs1
> 100 µM (inactive)

Please state recorded GI50 (tested on OVCAR-4) of c1ccc2c(c1)C(=Nc1ccc(N=C3c4ccccc4-c4ccccc43)cc1)c1ccccc1-2
> 100 µM (inactive)

Please state recorded GI50 (tested on OVCAR-4) of COc1ccc(N2C(=O)C(=O)C3(CCCCC3)C2=O)c2ccccc12
> 10 µM (inactive)

Please state recorded GI50 (tested on OVCAR-4) of OC1OCC(COc2cc(Cl)c(Cl)cc2Cl)OC1O (stereo not given)
31.8 µM (inactive)

Please state recorded GI50 (tested on OVCAR-4) of COc1nc(C(Cl)(Cl)Cl)c(Cl)c(O)c1Cl
> 100 µM (inactive)

Please state recorded GI50 (tested on OVCAR-4) of C=CCn1c(-c2cc(C(C)(C)C)c(O)c(C(C)(C)C)c2)cs/c1=N\C(P(=O)(O)O)P(=O)(O)O
> 100 µM (inactive)

Please state recorded GI50 (tested on OVCAR-4) of C/C(=N\NC(=O)CC#N)C(CN1CCCCC1)C(c1ccccc1)c1c(O)c2ccccc2oc1=O (stereo not given)
52.1 µM (inactive)

Please state recorded GI50 (tested on OVCAR-4) of NNS(=O)(=O)c1ccc(/C=C2\NC(=O)NC2=O)cc1
> 100 µM (inactive)

Please state recorded GI50 (tested on OVCAR-4) of O=C(Nc1nnc(S)[nH]1)C(=O)C(c1cnc2ccc([N+](=O)[O-])cc2n1)[N+](=O)[O-] (stereo not given)
> 100 µM (inactive)

Please state recorded GI50 (tested on OVCAR-4) of CCOC(=O)c1cn(-c2ccc(Cl)cc2)c(=O)n2c1nc1ccccc12
> 100 µM (inactive)

Please state recorded GI50 (tested on OVCAR-4) of CC(C)(CC(O)C#N)/[N+]([O-])=[N+](\[O-])C(C)(C)CC(O)C#N (stereo not given)
24.1 µM (inactive)

Please state recorded GI50 (tested on OVCAR-4) of O=C(Cc1ccc2ccccc2c1)NCc1ccc(C(=O)NCCc2ccccc2)cc1
> 100 µM (inactive)

Please state recorded GI50 (tested on OVCAR-4) of O=C1c2[nH]c3ccc(Br)cc3c2CCN1Cc1ccc(Cl)cc1
18.6 µM (inactive)

Please state recorded GI50 (tested on OVCAR-4) of COc1cc(C(=O)NC(CCN)(c2ccccc2)c2ccccc2)cc(OC)c1OC
21.2 µM (inactive)

Please state recorded GI50 (tested on OVCAR-4) of CCOC(=O)/C=C(\C(=O)OCC)n1ccc(=O)n(Cc2cn(COCCOC(C)=O)nn2)c1=O
19.5 µM (inactive)

Please state recorded GI50 (tested on OVCAR-4) of COc1ccc(CC(C)N)cc1 (stereo not given)
> 100 µM (inactive)

Please state recorded GI50 (tested on OVCAR-4) of CCOC(=O)/C(C#N)=C1\N[C@H](C(=O)OCC)CO1
> 100 µM (inactive)

Please state recorded GI50 (tested on OVCAR-4) of CC(=O)OCC1OC(OC2CC3C(C)(C)C(OC(C)=O)CC[C@]3(C)C3CCC45CC4(CC[C@H]5C(C)CC(O)[C@@H](O)C(C)(C)O)[C@]23C)C(O)C(O)C1O (stereo not given in full)
6.67 µM (inactive)

Please state recorded GI50 (tested on OVCAR-4) of CCOC(=O)C(NC(=O)c1cccc(Cl)c1)(N1CCN(c2cc3c(cc2F)c(=O)c(C(=O)O)cn3C2CC2)CC1)C(F)(F)F (stereo not given)
15.7 µM (inactive)

Please state recorded GI50 (tested on OVCAR-4) of CN(C)C(=S)N/N=C(\C(=N/NC(=S)N(C)C)c1ccccn1)c1ccccn1
7.28 µM (inactive)

---

test system: SK-MEL-2; test: NCI tumour cell line growth inhibition, 48 h
The source made the active and inactive calls. No stated cut-off is given here; in the data, active = GI50 up to about 1.1 µM and inactive = higher.
What GI50 was measured for each of the following?

Please look up its GI50: CC(C)N(O)C(=N)c1ccccc1
> 100 µM (inactive)

Please look up its GI50: NC1=NC2(COC(c3ccccc3)(c3ccccc3)c3ccccc3)OC(COC(c3ccccc3)(c3ccccc3)c3ccccc3)C(O)C2O1 (stereo not given)
5.77 µM (inactive)

Please look up its GI50: Cn1nc2ccc([N+](=O)[O-])cc2[n+]1[O-]
> 100 µM (inactive)

Please look up its GI50: CCOC(=O)/C(=C/c1ccc(Cl)cc1)N(CC)CC
> 100 µM (inactive)

Please look up its GI50: CCO[C@@H]1C2C=CC(C2)[C@H]1[N+](=O)[O-] (stereo not given in full)
> 100 µM (inactive)

Please look up its GI50: CCO/C([O-])=C(\C(=O)c1ccc([N+](=O)[O-])cc1)[n+]1c(C)n(C)c2ccccc21
> 100 µM (inactive)

Please look up its GI50: C[C@@]12C[C@@H](c3ccccc3O1)N1CCCSC1=N2
> 100 µM (inactive)

Please look up its GI50: Cn1c2ccccc2n2c(N=O)c(-c3ccccc3)nc12
33.1 µM (inactive)

Please look up its GI50: COc1cc(O)c2c(=O)c(OC)c(-c3ccc4c(c3)OCO4)oc2c1
59.7 µM (inactive)

Please look up its GI50: O=C(O)C1=CN(c2ccncc2)C(c2ccco2)=CC1c1ccccc1[N+](=O)[O-] (stereo not given)
15.7 µM (inactive)
